Catalogue of binders with associated neutralization EC90
test_system: JCV infectious virus, isolates Mad-1 and Mad-4 (VP1) (JC virus)
protocol_notes: cell-based or functional assay

In the examples that follow, each entry is paired with its recorded neutralization EC90.
NEG447 (antibody, human IgG1, lambda, V domains shown) VH: QVQLQESGPGLVKPSETLSLTCTVSGGSISRDYWSWVRQPPGAGLEWIGNIYYSGSTNYNPSLKSRVTISVATNKKQFSLKLTSVTAADTAVYYCARVPGCSSTSCIDGWFDPWGQGILVTVSS VL: QSVLTQPPSLSAAPGQKVTISCSGSSSNIGNTYVSWYQQLPGTAPKLLIYDNNKRPSGIPDRFSGSKSGTSATLGITGLQTGDEAVYYCGTWDSSLSAWVFGGGTRLTVLG ... > 100 µg/mL
P165E2 (antibody, human IgG1, lambda, V domains shown) VH: QVQLQESGPGLVKPSETLSLTCTVSGGSISRDYWTWVRQPPGEGLEWIGNIYYSGSTNYNPSLKSRVTISVAASKKQFSLKLTSVTAADTAVYYCARVPGCSSTSCIDGWFDPWGQGILVTVSS VL: QSVLTQPPSLSAAPGQRVTISCSGSSSNIGNTYVSWYQQLPGTAPKLLIYDNNKRPSGIPGRFSGSKSGTSATLGITGLQTGDEAAYYCGTWDSSLSAWVFGGGTRLTVLG ... > 100 µg/mL
P7G11A (antibody, human IgG1, lambda, V domains shown) VH: QVQLQESGPGLVKPSQTLSLTCTVSGGSISSGGYSWSWIRQPPGKGLEYIGYIYYRGTTYYNPSLKSRVTISVDTSNNQISLKLSSVTAADTAVYYCARALTHLVGVGWFDPWGQGTMVTVSS VL: QSVLTQPPSVSAAPGQKVTISCSGGSSNLGSNYVSWYQQLPGTAPKLLIYDNNKRPSGIPDRFSGSKSGTSATLGITGLQTGDEADYYCGTWDGSLSAWVFGGGTKVTVLG ... > 100 µg/mL

Could you now look at the following binder, please?
Just so you know, measured neutralization EC90 for P7G11 (antibody, human IgG1, lambda, V domains shown) VH: QVQLQESGPGLAKPSQTLSLTCSVSGGSISSGGYSWSWIRQPPGKGLEYIGYIYYRGTTYYNPSLKSRITMSVDTSNNQISLKLTSVTAADTAVYYCARALTHLVGVGWFDPWGQGTMVTVSS VL: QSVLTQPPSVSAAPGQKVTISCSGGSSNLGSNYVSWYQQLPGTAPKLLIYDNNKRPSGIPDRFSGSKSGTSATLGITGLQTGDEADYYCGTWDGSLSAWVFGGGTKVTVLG came out at > 100 µg/mL
